Biological target: 5-HT Transporter (SERT) sites in mouse brain (Mus musculus (Mouse), UniProt Q60857)
Assay: Ex vivo [3H] citalopram binding to SERT sites in mouse brain after oral dosing
Details: mice, 10 mg/kg PO, 60 min after treatment
Can you tell me SERT Mean Specific Binding ± S.E.M. for the items I'm about to list?
Answer with a number only, understood to be in dpm.

Hi! What's the reported SERT Mean Specific Binding ± S.E.M. for CN(C)CC1(c2ccc(Cl)c(Cl)c2)CCC(C)(O)CC1 (stereo not shown) [Compound 277] on 5-HT Transporter (SERT) sites in mouse brain (Mus musculus (Mouse), UniProt Q60857)? 1416

Lookup: SERT Mean Specific Binding ± S.E.M. / 5-HT Transporter (SERT) sites in mouse brain (Mus musculus (Mouse), UniProt Q60857) / CN(C)C[C@]1(c2ccc(Cl)c(Cl)c2)CCCC[C@H]1O (relative stereo) [153 E2] 2327

Record CNC(C)C1(c2ccc3ccccc3c2)CCCCC1 (single isomer, unassigned) [58 E1] : what is its SERT Mean Specific Binding ± S.E.M. with 5-HT Transporter (SERT) sites in mouse brain (Mus musculus (Mouse), UniProt Q60857)? 1799

Could you share what SERT Mean Specific Binding ± S.E.M. was measured for CN(C)C[C@]1(c2ccc3ccccc3c2)CCCC[C@H]1O (relative stereo) [164 E1] , tested on 5-HT Transporter (SERT) sites in mouse brain (Mus musculus (Mouse), UniProt Q60857)? 783

# get_value(readout= SERT Mean Specific Binding ± S.E.M., system= 5-HT Transporter (SERT) sites in mouse brain (Mus musculus (Mouse), UniProt Q60857)) for CNCC1(c2ccc(Cl)c(Cl)c2)CCC(C)(O)CC1 (stereo not shown) [Compound 276] 3092

Checklist item: SERT Mean Specific Binding ± S.E.M. tested on 5-HT Transporter (SERT) sites in mouse brain (Mus musculus (Mouse), UniProt Q60857), entry CN(C)C[C@]1(c2ccc3ccccc3c2)CC[C@](C)(O)CC1 [Compound 225] , value? 904

Test system 5-HT Transporter (SERT) sites in mouse brain (Mus musculus (Mouse), UniProt Q60857); read-out SERT Mean Specific Binding ± S.E.M.; what value for CC(N(C)C)C1(c2ccc3ccccc3c2)CCCCC1 (single isomer, unassigned) [56 E1] ? 278

----------
Target: human serotonin transporter (Homo sapiens (Human), UniProt P31645)
Sequence (P31645 whole entry): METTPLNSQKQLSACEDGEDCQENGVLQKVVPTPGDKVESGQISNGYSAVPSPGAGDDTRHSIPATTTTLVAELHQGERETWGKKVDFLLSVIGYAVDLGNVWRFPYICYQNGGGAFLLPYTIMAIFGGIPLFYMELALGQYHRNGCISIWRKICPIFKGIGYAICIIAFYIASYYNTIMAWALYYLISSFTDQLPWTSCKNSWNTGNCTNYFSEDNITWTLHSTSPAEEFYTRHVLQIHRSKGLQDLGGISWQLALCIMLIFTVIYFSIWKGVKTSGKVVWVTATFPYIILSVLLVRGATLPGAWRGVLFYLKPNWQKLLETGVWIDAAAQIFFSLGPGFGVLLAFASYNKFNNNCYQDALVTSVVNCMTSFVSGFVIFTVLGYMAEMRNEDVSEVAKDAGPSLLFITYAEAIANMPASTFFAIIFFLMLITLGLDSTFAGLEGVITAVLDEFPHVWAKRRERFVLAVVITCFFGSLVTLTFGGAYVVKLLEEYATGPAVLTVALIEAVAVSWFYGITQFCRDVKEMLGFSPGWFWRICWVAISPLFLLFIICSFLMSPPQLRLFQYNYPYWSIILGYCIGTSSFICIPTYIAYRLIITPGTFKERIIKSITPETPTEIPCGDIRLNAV
Test: Serotonin functional uptake assay, recombinant human transporter in HEK-293 cells
Assay type: cell-based
Settings: Human serotonin transporter uptake; read-out: hSERT IC50
pIC50: −log10 of the molar value. Where a name gives a salt, the structure may show the parent alone.
Returns class 1 if the recorded pIC50 is greater than or equal to 7, and class 0 otherwise.

Does pIC50 meet or surpass 7 for COc1ccc([C@]2(CN(C)C)CCCC[C@H]2O)cc1 (single isomer, unassigned) [155 E2] ? class 0

Entry OC1CCCC1NCC1(c2ccc(Cl)c(Cl)c2)CCCCC1 (racemic) [Compound 116] : is its pIC50 no less than 7? class 0

Could you verify whether the entry CO[C@@H]1CCC[C@@](CN)(c2ccc(Cl)c(Cl)c2)C1 [Compound 192] shows pIC50 of no less than 7? class 0

# check: pIC50 of CCNC[C@@]1(c2ccc(Cl)c(Cl)c2)CCCC[C@H]1C (racemic) [Compound 177] is greater than or equal to 7 class 0

Reported pIC50 at or above 7? CNC[C@@]1(c2ccc(OC(F)(F)F)cc2)CCCC[C@H]1O (single isomer, unassigned) [145 E2] class 0

Decide: is the reported value of pIC50 for CN(C)C[C@]1(c2ccc(C(F)(F)F)cc2)CCCC[C@H]1O (single isomer, unassigned) [160 E2] equal to or greater than 7? class 0

Quick check: does CN(C)C[C@]1(c2ccc(Cl)c(Cl)c2)CCCC[C@H]1O (single isomer, unassigned) [153 E1] have pIC50 greater than or equal to 7? class 1

Textbook exercise: given the entry C[C@@H]1CCCC[C@@]1(CN)c1ccc(Cl)c(Cl)c1 (racemic) [Compound 174, hydrochloride] , state whether its pIC50 is greater than or equal to 7. class 0

Reported pIC50 reaches at least 7 for C[C@@H]1CCCC[C@@]1(CN(C)C)c1ccc(Cl)c(Cl)c1 (racemic) [Compound 175, hydrochloride] ? class 1

Hi team, for CNC[C@@]1(c2ccc(Cl)c(Cl)c2)CCCC[C@H]1C (racemic) [Compound 176] , is the recorded pIC50 at or above 7? class 0

API: above_or_equal(metric=pIC50, cutoff=7) for item CN(C)C[C@]1(c2ccc(Cl)c(F)c2)CCCC[C@H]1O (single isomer, unassigned) [158 E2] class 0

# check: pIC50 of CN(C)C[C@@]1(c2ccc(C(F)(F)F)cc2)CCCC[C@H]1O (single isomer, unassigned) [159 E2] is greater than or equal to 7 class 1

Evaluate CNC[C@@]1(c2ccc(C(F)(F)F)cc2)CCCC[C@H]1O (single isomer, unassigned) [143 E2] : pIC50 at minimum 7? class 0

Confirm if pIC50 reported for the compound CNC[C@]1(c2ccc(Cl)c(Cl)c2)CC[C@H](O)CC1 [Compound 287] is 7 or above. class 0

Threshold query (pIC50 >= 7) on CNC[C@]1(c2ccc(C(F)(F)F)cc2)CCCC[C@H]1O (single isomer, unassigned) [144 E1] class 0
